Just for reference, the supplement of paper PMC9170038 is where these values come from.

# System: MS2 coat protein
# experiment-notes: apparent KD of MS2 coat protein; designed switch direction (-1 OFF switch, 1 ON switch): -1; higher = weaker reporter binding
# settings: input ligand: none
# label = satisfied if apparent KD of MS2 coat protein >= 0.03 µM else not satisfied

Input line: Given the entry CCAGAGUGAGGAUAUGCAUAAAGGUGCUGUCCCGUGGCUUGACAUGAGGAUCACCCAUGUAGAAGGUGCGUUGU [Raonra] (Eterna round: R96, puzzle: Exclusion 2) , answer whether its apparent KD of MS2 coat protein meets or surpasses 0.03 µM.
Output line: satisfied

Continuing:
Input line: Tell me whether apparent KD of MS2 coat protein is at least 0.03 µM here: UAUAUGUCAGGAUAUCGAUUAGAACAGAAUUUAACAAUAGUCGAGAAGGGACAUGAGGAUCACCCAUGUUCAAC [JR_Ex4_Sub021] (Eterna round: R97, puzzle: Exclusion 4)
Output line: not satisfied

Input line: What do we get for UUGAUUCAUUCCUCUAUAAACAUGAGGAUCACCCAUGUAAGUGAGGAUAUAGUUGGAGUUGUAUACUAGAAGGCACUUAGUUUU [JR_ExcNG3_Sub048] (Eterna round: R96, puzzle: Exclusion NG 3) ?
Output line: not satisfied

Input line: Could you do the same for GCAUGUUGGUAGGAUAUGCAGCGAAAACCGCUAGUAGAAGGAUUGACAUGAGGAUCACCCAUGUGAACCGAAGG [Esesbece] (Eterna round: R97, puzzle: Exclusion 6) , please?
Output line: satisfied

Input line: Follow-up entry: GCCAGAGCAGGAUAUCUAUAUUAUCACAUGAGGAUCACCCAUGUCCAGCGAAAGCUGGAGGGAGAAGGGCUCUGGC [Fiskers Ex 5 - 26] (Eterna round: R96, puzzle: Exclusion 5)
Output line: satisfied

Input line: Request: AUCGUGCAGCUUUGCUGUACGAGUACAUGAGGAUCACCCAUGUAGGAUAUGGUACGCUUUGCGUGCUAGAAGGAUAUGAGAUGU [JL ENG3 1.49] (Eterna round: R96, puzzle: Exclusion NG 3)
Output line: satisfied
